# target.of.assay: shed MICA008 polypeptide (human) (UniProt Q29983)
# assay.details: capture ELISA (anti-hFc / antibody / shed antigen / biotin-6D4)
quantity.kind: Max OD450

* 1D5 (antibody, human IgG1, kappa, V domains shown) VH: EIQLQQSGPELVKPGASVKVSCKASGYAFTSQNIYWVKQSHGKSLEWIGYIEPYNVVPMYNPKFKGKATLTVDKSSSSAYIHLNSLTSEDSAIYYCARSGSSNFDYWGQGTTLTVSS VL: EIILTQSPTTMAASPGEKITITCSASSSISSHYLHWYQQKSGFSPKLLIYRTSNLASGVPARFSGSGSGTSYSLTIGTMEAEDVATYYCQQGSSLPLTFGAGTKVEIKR | 0.41
* 3F9 (antibody, human IgG1, kappa, V domains shown) VH: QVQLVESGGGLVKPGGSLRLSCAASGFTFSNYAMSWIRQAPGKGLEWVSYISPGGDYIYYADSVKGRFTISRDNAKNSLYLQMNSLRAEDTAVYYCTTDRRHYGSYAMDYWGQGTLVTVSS VL: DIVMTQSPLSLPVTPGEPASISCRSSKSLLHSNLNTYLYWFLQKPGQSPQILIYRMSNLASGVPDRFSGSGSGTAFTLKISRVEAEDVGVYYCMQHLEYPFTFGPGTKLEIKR | 0.34
* #34 (antibody, V domains shown) VH: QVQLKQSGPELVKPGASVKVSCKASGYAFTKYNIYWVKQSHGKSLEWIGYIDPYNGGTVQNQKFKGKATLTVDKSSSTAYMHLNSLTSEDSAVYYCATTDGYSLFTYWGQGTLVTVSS VL: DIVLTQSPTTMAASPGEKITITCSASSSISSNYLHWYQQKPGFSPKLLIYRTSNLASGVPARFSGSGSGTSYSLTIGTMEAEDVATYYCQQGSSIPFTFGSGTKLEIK | 0.12
* #39 (antibody, V domains shown) VH: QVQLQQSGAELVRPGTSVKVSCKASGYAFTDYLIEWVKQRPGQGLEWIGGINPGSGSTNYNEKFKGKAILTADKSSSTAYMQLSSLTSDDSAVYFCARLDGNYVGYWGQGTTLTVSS VL: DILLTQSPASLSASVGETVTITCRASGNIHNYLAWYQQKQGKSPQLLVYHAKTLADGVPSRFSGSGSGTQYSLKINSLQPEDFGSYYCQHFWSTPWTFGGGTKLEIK | 0.03
* 13A9 (antibody, human IgG1, kappa, V domains shown) VH: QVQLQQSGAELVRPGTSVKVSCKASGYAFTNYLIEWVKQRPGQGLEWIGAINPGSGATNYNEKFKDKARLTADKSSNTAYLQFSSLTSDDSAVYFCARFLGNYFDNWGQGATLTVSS VL: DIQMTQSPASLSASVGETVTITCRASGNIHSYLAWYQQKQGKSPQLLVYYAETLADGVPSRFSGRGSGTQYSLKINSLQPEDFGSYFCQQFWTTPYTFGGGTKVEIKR | 0.15

Hey, just so you know, these numbers are from patent US20250368742A1.
